system name: BSA (Bos taurus)
Sequence (P02769 25-607): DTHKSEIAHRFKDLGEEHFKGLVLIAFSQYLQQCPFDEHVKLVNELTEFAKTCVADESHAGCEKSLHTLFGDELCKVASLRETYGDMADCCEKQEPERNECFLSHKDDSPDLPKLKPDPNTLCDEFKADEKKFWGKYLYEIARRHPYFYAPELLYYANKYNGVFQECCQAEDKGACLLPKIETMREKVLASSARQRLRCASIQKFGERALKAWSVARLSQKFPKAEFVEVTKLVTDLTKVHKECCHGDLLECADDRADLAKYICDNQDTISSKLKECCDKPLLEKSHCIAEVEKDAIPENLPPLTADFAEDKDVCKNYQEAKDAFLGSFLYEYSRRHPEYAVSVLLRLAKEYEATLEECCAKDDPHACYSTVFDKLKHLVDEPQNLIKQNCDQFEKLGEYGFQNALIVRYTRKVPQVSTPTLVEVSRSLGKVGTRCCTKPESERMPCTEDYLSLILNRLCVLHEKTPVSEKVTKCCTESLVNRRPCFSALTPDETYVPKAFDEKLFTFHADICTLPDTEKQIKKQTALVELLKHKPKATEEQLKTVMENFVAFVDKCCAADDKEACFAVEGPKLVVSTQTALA
pKd: −log10 of the molar value.
observation type: pKd

> print(dat)
                                smiles.repr       system.name  test.result
1  C=CC1=C(C)C2=Cc3c(C=C)c(C)c4[n]3[Fe]([Cl])[n]3c(c(C)c(CCC(=O)O)c3=CC3=NC(=C4)C(C)=C3CCC(=O)O)=CC1=N2  BSA (Bos taurus)         5.75

Where these numbers come from: paper doi:10.1101/2023.06.29.547052v1
